B1: Caulobacter ParB omega fusion; a variant is named by its letters at X, in order, B8GW30 (parent)
chain: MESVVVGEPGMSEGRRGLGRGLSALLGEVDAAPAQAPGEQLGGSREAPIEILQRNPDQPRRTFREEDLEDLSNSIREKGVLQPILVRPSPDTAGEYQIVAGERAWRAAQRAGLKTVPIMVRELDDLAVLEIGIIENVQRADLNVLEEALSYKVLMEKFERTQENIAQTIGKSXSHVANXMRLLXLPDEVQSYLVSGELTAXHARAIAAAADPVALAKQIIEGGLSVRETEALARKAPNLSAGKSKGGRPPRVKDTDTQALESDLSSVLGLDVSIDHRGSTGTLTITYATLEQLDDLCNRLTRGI

Variants of: B1
Experiment: one-hybrid fitness for binding parS DNA (scaled: cognate 1, non-cognate 0); higher = stronger binding
Conditions: with parS DNA site
Whole data set: some 81,000 sequences, median “one-hybrid fitness for binding parS DNA” near -0.17, cut for the highest 2% near 0.51. Shown is part of a subset that was picked to be rich in the highest values.
Output Satisfied for one-hybrid fitness for binding parS DNA not less than 0.6; output Not satisfied otherwise.

Solved cases below.
- variant-designation: "RNFR"
  group: "Not satisfied"
- variant-designation: "NQVG"
  group: "Not satisfied"
- variant-designation: "RVIC"
  group: "Satisfied"
- variant-designation: "RWQT"
  group: "Satisfied"
- variant-designation: "RNAR"
  group: "Not satisfied"

Decide: is the reported value of one-hybrid fitness for binding parS DNA for `NRVA` equal to or greater than 0.6?
Not satisfied

Determine whether this variant has one-hybrid fitness for binding parS DNA no lower than 0.6: `QWHV`
Not satisfied

one-hybrid fitness for binding parS DNA >= 0.6 for `RWSD` ?
Not satisfied

Hi team, for `QFHD` , is the recorded one-hybrid fitness for binding parS DNA at or above 0.6?
Not satisfied

Hi team, for `RLHY` , is the recorded one-hybrid fitness for binding parS DNA at or above 0.6?
Not satisfied

Record `REFG` ; criterion: one-hybrid fitness for binding parS DNA no lower than 0.6. Met?
Not satisfied
